assay: qHTS for Inhibitors of TGF-b: Cytotox Counterscreen; details: HepG2 CAGA-GFP viability, ATP luminescence, 18 h; series mostly up to 46.1 µM
Hit rate of the full screen: of about 410,000 compounds, about 3,100 (0.76%) were called active. The call rests on the fitted dose curve; in most records, active means well fitted cell-killing curve with a large enough effect; inactive means no such curve, though single readings can be large or run the other way. Only a selection was taken, and actives are over-represented in it overall.
// classify into T (active), F (inactive)

Check out these entries, answers already filled in.
>>> class_label("CCn1c(=O)c(=O)[nH]c2c(=O)oc3ccc(S(=O)(=O)Nc4ccc(OC)cc4)cc3c21")
"F"
>>> class_label("CCCc1nc2scc(-c3ccc(C)cc3)c2c(=O)n1N")
"F"
>>> class_label("CCOc1ccccc1N(CC)C(=O)c1cc2ccc3cccnc3c2[nH]1")
"T"
>>> class_label("Cc1ccccc1CN1CCC(CNC(=O)c2c(C)oc3ncnc(N4CCCCC4)c23)CC1")
"F"
>>> class_label("CCc1ccccc1NC(=O)c1ccc2nc(CCc3ccccc3)oc2c1")
"F"

QUERY: Record request — test call for OC[C@@H]1O[C@H](n2cnc3c(SCc4ccccc4)ncnc32)[C@H](O)[C@H]1O
RESULT: F

QUERY: Record request — test call for CCCc1cc(-c2nc(-c3ccc(C)cc3)cs2)ccn1
RESULT: T

QUERY: Record request — test call for OCC(O)C(O)C(O)C(O)C=Nc1ccc(/C=C/c2ccnc3ccccc23)cc1 (stereo unspecified)
RESULT: F

QUERY: Record request — test call for Cc1ccccc1CN1CCC(C(=O)Nc2ccc(Oc3cccnc3)cc2)CC1
RESULT: F

QUERY: Record request — test call for Fc1ccc(-c2csc(-c3ccc(C4SCCS4)cc3)n2)cc1F
RESULT: F

QUERY: Record request — test call for Brc1nc2ncnc(NCc3ccco3)c2[nH]1
RESULT: F

---

test: qHTS for Inhibitors of TGF-b: Cytotox Counterscreen; details: HepG2 CAGA-GFP viability, ATP luminescence, 18 h; series mostly up to 46.1 µM
About 3,100 (0.76%) of roughly 410,000 compounds were called active. Calls come from the whole dose curve; as a rule, active = well fitted cell-killing curve with a large enough effect; inactive = no such curve, though single readings can be large or run the other way. The sample holds actives, similar compounds and a random draw of the others, so the mix is not that of the screen.
// classify into true (1) for active, false (0) for inactive

>>> class_label("Nc1ccc(/C=C/c2ccnc3ccccc23)c([N+](=O)[O-])c1")
"false (0)"
>>> class_label("Cc1ccc(C=O)cc1Cl")
"false (0)"
>>> class_label("O=C(Nc1cccc(-c2cccc(Cl)c2)c1)C1CCN(C2CCC2)CC1")
"false (0)"
>>> class_label("COC(=O)c1ccc(NC(=O)CN(c2ccc(C)cc2)S(=O)(=O)c2c(C)n[nH]c2C)cc1")
"false (0)"
>>> class_label("Oc1ccccc1-c1nc(/C=C/c2ccc(F)cc2)no1")
"false (0)"
>>> class_label("COc1cc(OC)c(C2C=C(C(=O)O)Nc3ncnn32)cc1OC (stereo unspecified)")
"false (0)"
>>> class_label("COc1ccc(-n2nnc(-c3nsc(NC(=O)c4ccc(C)c(C)c4)n3)c2C)cc1Cl")
"false (0)"
>>> class_label("CCOc1ccc(OCC)c(NC(=O)CN(c2ccc(C)cc2)S(=O)(=O)c2c(C)n[nH]c2C)c1")
"true (1)"

QUERY: Record request — test call for Cc1ccc(NS(=O)(=O)c2ccc(F)cc2)nc1
RESULT: false (0)

QUERY: Record request — test call for CCN(CC)/[N+]([O-])=N/OCOC(=O)Cc1c(C)n(C(=O)c2ccc(Cl)cc2)c2ccc(OC)cc12
RESULT: false (0)

QUERY: Record request — test call for Nc1ncc(S(=O)(=O)Nc2ccc(OC(F)(F)F)cc2)cn1
RESULT: false (0)

QUERY: Record request — test call for Cc1ccc(-c2nc(S(=O)(=O)c3ccc(C)cc3)c(N3CCCCCC3)o2)cc1
RESULT: false (0)

QUERY: Record request — test call for Cc1ccc2c(c1)N(C(=O)CCC(=O)NCc1ccccc1F)CC(C)O2 (stereo unspecified)
RESULT: false (0)

QUERY: Record request — test call for O=C(c1cccc(Br)c1)N1CCN(Cc2cc(=O)n3nc(-c4ccccc4)sc3n2)CC1
RESULT: false (0)

QUERY: Record request — test call for CCC(C)N(c1ccc(/C=C/c2ccnc3ccccc23)cc1)C(C)CC (stereo unspecified)
RESULT: false (0)

QUERY: Record request — test call for CNC[C@H](CC1CCCCC1)NC[C@H](NCCC1CCCC1)[C@H](C)O
RESULT: true (1)

QUERY: Record request — test call for COc1ccc(CN2CCC(=O)c3ccccc3S2(=O)=O)cc1
RESULT: false (0)

QUERY: Record request — test call for CCN(Cc1ccccc1)Cc1c(O)ccc2c(=O)c(-c3ccc(Cl)cc3Cl)coc12
RESULT: false (0)

QUERY: Record request — test call for O=C(Oc1ccc(-c2nc(-c3ccccn3)no2)cc1)c1ccccc1
RESULT: true (1)

QUERY: Record request — test call for CCCN1CCC(=O)N(C(CSc2ccc(OC)cc2)Cc2ccccc2)CC1 (stereo unspecified)
RESULT: false (0)

QUERY: Record request — test call for CCOC(=O)c1c(NC(=O)c2ccc(S(=O)(=O)N3CCCC(C)C3)cc2)sc2c1CCN(C(C)C)C2 (stereo unspecified)
RESULT: true (1)

QUERY: Record request — test call for COc1cc(/C=C/C(=O)OCC(=O)Nc2cccc(Oc3ccccc3)c2)ccc1O
RESULT: false (0)
